These measurements were taken from patent US20100261753A1.

# experiment.summary: Rat pharmacokinetics
# Type: in vivo, Sprague-Dawley rats
# condition.set: male, Sprague-Dawley, plasma, IV, 3 mg/kg free base (3.72 mg/kg salt)
observation.type: AUC(0-t)
Number first, unit second: that is the form wanted.

Can you look up the measured AUC(0-t) of O[C@@H]1CNCC(CF)[C@H]1O (stereo in doubt) for me?
1800 ng·h/mL

* * *

# experiment.summary: Compound concentration in brain, spleen and plasma samples of the GCase enhancement study
# Format: in vivo, mice (C57BL/6)
# condition.set: male, C57BL/6, mouse, plasma, po, 100 mg/kg; 100 mg/kg p.o., nine doses, 24-hour washout; Table 3C
observation.type: concentration at 24 h
Number first, unit second: that is the form wanted.

Can you look up the measured concentration at 24 h of OC[C@H]1CNC[C@@H](O)[C@@H]1O [IFG, reference compound] for me?
330 nM

* * *

# experiment.summary: Compound concentration in brain, spleen and plasma samples of the GCase enhancement study
# Assay type: in vivo, mice (C57BL/6)
# condition.set: male, C57BL/6, mouse, po; brain; 100 mg/kg p.o., nine doses, 24-hour washout; Table 3A
observation.type: concentration at 24 h (nM)
Numbers only, in nM.

Can you look up the measured concentration at 24 h of O[C@@H]1CNCC(CF)[C@H]1O (stereo in doubt) [Compound A] for me?
726

* * *

# experiment.summary: Rat pharmacokinetics
# Format: in vivo, Sprague-Dawley rats
# condition.set: male, Sprague-Dawley, plasma, IV, 3 mg/kg free base
observation.type: Cmax (ng/mL)
Answers are plain numbers, in ng/mL.

Can you look up the measured Cmax of O[C@@H]1CNCC(CF)[C@H]1O (stereo in doubt) [Compound A] for me?
7270

* * *

# experiment.summary: Compound concentration in brain, spleen and plasma samples of the GCase enhancement study
# Type: in vivo, mice (C57BL/6)
# condition.set: male, C57BL/6, mouse, brain, po, 100 mg/kg; 100 mg/kg p.o., nine doses, 24-hour washout; Table 3A
observation.type: concentration at 24 h (nM)
Numbers only, in nM.

Can you look up the measured concentration at 24 h of OC[C@H]1CNC[C@@H](O)[C@@H]1O [IFG, reference compound] for me?
182

* * *

# experiment.summary: Rat pharmacokinetics
# Format: in vivo, Sprague-Dawley rats
# condition.set: male, Sprague-Dawley, plasma, PO, 30 mg/kg free base (37.2 mg/kg salt)
observation.type: AUC(0-t) (ng·h/mL)
Answers are plain numbers, in ng·h/mL.

Can you look up the measured AUC(0-t) of O[C@@H]1CNCC(CF)[C@H]1O (stereo in doubt) [Compound A] for me?
8250

* * *

# experiment.summary: Compound concentration in brain, spleen and plasma samples of the GCase enhancement study
# Assay type: in vivo, mice (C57BL/6)
# condition.set: male, C57BL/6, mouse, brain, po, 10 mg/kg; 10 mg/kg p.o., nine doses, 24-hour washout; Table 4A
observation.type: concentration at 24 h (nM)
One number for each entry, in nM.

Can you look up the measured concentration at 24 h of OC[C@H]1CNC[C@@H](O)[C@@H]1O [IFG, reference compound] for me?
49

* * *

# experiment.summary: Rat pharmacokinetics
# Format: in vivo, Sprague-Dawley rats
# condition.set: male, Sprague-Dawley, plasma, PO, 10 mg/kg free base, read-out: % F
observation.type: bioavailability

Can you look up the measured bioavailability of O[C@@H]1CNCC(CF)[C@H]1O (stereo in doubt) [Compound A] for me?
50%

* * *

# experiment.summary: Rat pharmacokinetics
# Type: in vivo, Sprague-Dawley rats
# condition.set: male, Sprague-Dawley, plasma, PO, 30 mg/kg free base
observation.type: Cmax (ng/mL)
Give bare numbers, in ng/mL.

Can you look up the measured Cmax of O[C@@H]1CNCC(CF)[C@H]1O (stereo in doubt) for me?
2870

* * *

# experiment.summary: Rat pharmacokinetics
# Format: in vivo, Sprague-Dawley rats
# condition.set: male, Sprague-Dawley, plasma, IV, 3 mg/kg free base, read-out: t1/2 (converted)
observation.type: half-life (h)
One number for each entry, in h.

Can you look up the measured half-life of O[C@@H]1CNCC(CF)[C@H]1O (stereo in doubt) [Compound A] for me?
1.4

* * *

# target: recombinant human GCase (rhGCase; Cerezyme) (Homo sapiens, UniProt P04062, R534H)
# Construct: purchased Genzyme Corp
# Sequence (P04062 40-536 R534H): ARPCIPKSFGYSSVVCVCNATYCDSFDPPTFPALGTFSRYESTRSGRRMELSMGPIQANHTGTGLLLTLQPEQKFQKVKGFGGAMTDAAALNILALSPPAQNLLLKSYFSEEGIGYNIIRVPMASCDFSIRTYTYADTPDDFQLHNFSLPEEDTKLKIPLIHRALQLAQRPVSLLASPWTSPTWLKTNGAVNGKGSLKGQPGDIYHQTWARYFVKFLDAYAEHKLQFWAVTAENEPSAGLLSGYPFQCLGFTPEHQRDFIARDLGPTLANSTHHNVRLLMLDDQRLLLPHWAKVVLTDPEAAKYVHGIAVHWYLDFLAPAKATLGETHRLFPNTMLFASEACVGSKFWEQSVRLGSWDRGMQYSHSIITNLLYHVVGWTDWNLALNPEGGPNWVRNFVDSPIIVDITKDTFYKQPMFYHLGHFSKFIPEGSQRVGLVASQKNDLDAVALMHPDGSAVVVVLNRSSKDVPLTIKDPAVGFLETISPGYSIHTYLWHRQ
# experiment.summary: In vitro enzyme inhibition assay of rhGCase with 4-MU-β-D-Glc substrate
# Type: biochemical
# condition.set: pH 5.2; average of three independent experiments; Table 3B; read-out: IC50 pH 5.2
observation.type: IC50 (nM)
One number for each entry, in nM.

Can you look up the measured IC50 of O[C@@H]1CNCC(CF)[C@H]1O (stereo in doubt) for me?
10

* * *

# target: recombinant human GCase (rhGCase; Cerezyme) (Homo sapiens, UniProt P04062, R534H)
# Construct: purchased Genzyme Corp
# experiment.summary: In vitro enzyme inhibition assay of rhGCase with 4-MU-β-D-Glc substrate
# Type: biochemical
# condition.set: pH 7; from IC50 by Cheng-Prusoff equation; read-out: Ki pH 7
observation.type: Ki (nM)
Numbers only, in nM.

Can you look up the measured Ki of O[C@@H]1[C@@H](CCl)CNC[C@H]1O for me?
5.1

* * *

# experiment.summary: Rat pharmacokinetics
# Assay type: in vivo, Sprague-Dawley rats
# condition.set: male, Sprague-Dawley, plasma, PO, 10 mg/kg free base (12.4 mg/kg salt)
# Experimental: Pharmacokinetic (PK) data was obtained in rats to assess the bioavailability of test compound. In particular, the following PK parameters were calculated: bioavailability as measured by area under the Concentration/Time curve (AUC), fraction of dose available (% F; further defined below), clearance (CL), volume of distribution (Vd), and half-life (t½). […] Plasma samples were analyzed for compound levels by LC-MS/MS at PPD. […]
observation.type: AUC(0-t) (ng·h/mL)
One number for each entry, in ng·h/mL.

Can you look up the measured AUC(0-t) of O[C@@H]1CNCC(CF)[C@H]1O (stereo in doubt) [Compound A] for me?
2980

* * *

# experiment.summary: Rat pharmacokinetics
# Format: in vivo, Sprague-Dawley rats
# condition.set: male, Sprague-Dawley, plasma, read-out: half-life
# Procedure: Pharmacokinetic (PK) data was obtained in rats to assess the bioavailability of test compound. In particular, the following PK parameters were calculated: bioavailability as measured by area under the Concentration/Time curve (AUC), fraction of dose available (% F; further defined below), clearance (CL), volume of distribution (Vd), and half-life (t½). […] Plasma samples were analyzed for compound levels by LC-MS/MS at PPD. […]
Counter-ions that a name gives are not always drawn.
observation.type: half-life

Can you look up the measured half-life of O[C@@H]1CNCC(CF)[C@H]1O (stereo in doubt) [Compound A-HCl] for me?
1 to 2.5 h

* * *

# experiment.summary: Compound concentration in brain, spleen and plasma samples of the GCase enhancement study
# Assay type: in vivo, mice (C57BL/6)
# condition.set: male, C57BL/6, mouse, spleen, po, 100 mg/kg; 100 mg/kg p.o., nine doses, 24-hour washout; Table 3B
observation.type: concentration at 24 h (nM)
Numbers only, in nM.

Can you look up the measured concentration at 24 h of OC[C@H]1CNC[C@@H](O)[C@@H]1O [IFG, reference compound] for me?
711

* * *

# experiment.summary: Compound concentration in brain, spleen and plasma samples of the GCase enhancement study
# Format: in vivo, mice (C57BL/6)
# condition.set: male, C57BL/6, mouse, plasma, po, 10 mg/kg; 10 mg/kg p.o., nine doses, 24-hour washout; Table 4C
# Description: The ability of orally administered test compounds (the hydrochloride salt form of Compound A and Compound B) to elevate GCase levels as compared to reference compound, IFG-tartrate, was assessed in mice. […] Seven animals were used per dose. The dosing solutions were prepared in water. […] Plasma was collected by spinning blood at 2700 g for 10 minutes at 4° C. […] Fluorescence was measured on a plate reader for 1 sec/well using 355 nm excitation and 460 nm emission. […]
observation.type: concentration at 24 h (nM)
Numbers only, in nM.

Can you look up the measured concentration at 24 h of OC[C@H]1CNC[C@@H](O)[C@@H]1O [IFG, reference compound] for me?
67

* * *

# experiment.summary: Compound concentration in brain, spleen and plasma samples of the GCase enhancement study
# Assay type: in vivo, mice (C57BL/6)
# condition.set: male, C57BL/6, mouse, spleen, po, 10 mg/kg; 10 mg/kg p.o., nine doses, 24-hour washout; Table 4B
observation.type: concentration at 24 h (nM)
Numbers only, in nM.

Can you look up the measured concentration at 24 h of OC[C@H]1CNC[C@@H](O)[C@@H]1O [IFG, reference compound] for me?
150
